Taken from PubChem BioAssay (EPA / NIEHS).

Read-out: Bcl-2 (BAX) gene, BAX (gene 581)
test: LTEA_HepaRG_BAX: Life Technologies and Expression Analysis (LTEA) Assay for Bcl-2 (BAX) gene using HepaRG (AID 2283470)
condition info: mRNA level, 48 h; actives raise or lower the signal
Calls of active or inactive are those of the source. Rule for the calls: active = hit-call score of the fitted dose curve at least 0.9, where 1 is the maximum; inactive = score below 0.9.
observable: AC50

For orientation, consider the following solved cases.
molecule: O=CCCCC=O
observable: AC50
value measured: inactive
--
molecule: O=C=NCCCCCCN=C=O
observable: AC50
value measured: inactive
--
molecule: CCCCCCCC[Si](OCC)(OCC)OCC
observable: AC50
value measured: inactive
--
molecule: CC(C)(C)c1cc(/C=C2\SC(N)=NC2=O)cc(C(C)(C)C)c1O
observable: AC50
value measured: inactive
--
molecule: CCCCCCCCCCCCO
observable: AC50
value measured: inactive

Look up and report measured AC50 for this entry: `CC1(C)NC(=O)N(c2ccc([N+](=O)[O-])c(C(F)(F)F)c2)C1=O`
inactive

Kindly indicate its recorded AC50. Item: `C[C@]12CC[C@@H]3c4ccc(O)cc4CC[C@H]3[C@@H]1CCC2=O`
inactive

Consider the molecule `CN(C)C(=O)C1(N2CCCCC2)CCN(CC[C@@]2(c3ccc(Cl)c(Cl)c3)CN(C(=O)c3ccccc3)CCO2)CC1` . State its measured AC50.
27.1 µM (active)

====

test: ACEA_AR_antagonist_AUC_viability: ACEA Biosciences xCELLigence Real-Time Cell Analysis on Androgen Receptor Antagonism for Viability (AID 2283776);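 note: 22Rv1 human prostate cancer cells growing on impedance electrode plates; area under impedance growth curve at 80 h after dosing as viability; hits lower the growth signal relative to DMSO meaning cytotoxicity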
Inconclusive results are not listed. Calls of active or inactive are those of the source. The calls were made as follows: active = hit-call score of the fitted dose curve at least 0.9, where 1 is the maximum; inconclusive = response in the unintended direction; inactive = score below 0.9.
Respond with a class label; see active, inactive

molecule: Cc1c2ccccc2c(C)c2c1ccc1ccccc12
assigned class: active

molecule: CCCCCCCCCCCO
assigned class: active

molecule: CN(C)c1ccc(C(=C2C=CC(=[N+](C)C)C=C2)c2ccc(N(C)C)cc2)cc1
assigned class: active

molecule: O=C(O)c1ccccc1-n1cc(C(=O)O)c(=O)c2cc(Nc3c(F)cc(F)cc3Cl)c(Cl)cc21
assigned class: inactive

molecule: CCCCCCCC[Si](OCC)(OCC)OCC
assigned class: inactive

Next molecule, please.
State the result this test recorded for `c1ccc(C[n+]2cccc3ccccc32)cc1` .
active

====

test: ATG_NRF2_ARE_CIS: Attagene CIS-FACTORIAL HepG2 Assay for human Nuclear Factor Erythroid 2 Related Factor 2 (NFR2) response to Antioxidant Response Elements (ARE) (AID 2282992);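 for AC50: reporter mRNA level measured by RT-PCR and capillary electrophoresis fluorescence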
condition info: HepG2 Attagene ARE/NRF2 reporter, transcription factor activity; actives raise or lower the signal
Active and inactive are the calls of the source. The calls were made as follows: active = hit-call score of the fitted dose curve at least 0.9, where 1 is the maximum; inactive = score below 0.9.
observable: AC50

Reference set (4 entries):
molecule: NCc1cccc(C2CCN(C(=O)c3ccc(C#Cc4ccccc4F)o3)CC2)c1
AC50: 1.76 µM (active)

molecule: Cc1cccc2ccccc12
AC50: inactive

molecule: Clc1ccccc1C(c1ccccc1)(c1ccccc1)n1ccnc1
AC50: 5.21 µM (active)

molecule: CN1C(=O)CC[C@H]1c1cccnc1
AC50: inactive

Give a short answer stating reported AC50 for CN1C(=O)N(c2ccccc2Br)Cc2cnc(Nc3ccc4c(c3)OCC(CO)O4)nc21 (stereo unspecified) .
inactive

Determine from records and report AC50 for `OCCO`
inactive

Item `O=C(Nc1ccc(Cl)cc1)Nc1ccc(Cl)c(Cl)c1` : provide AC50
6.66 µM (active)

Quote AC50 reported for COCC(C)OCC(C)OCC(C)O (stereo unspecified) please.
inactive

Specify measured AC50 for `CN(C)C(=O)C1(N2CCCCC2)CCN(CC[C@@]2(c3ccc(Cl)c(Cl)c3)CN(C(=O)c3ccccc3)CCO2)CC1` .
0.458 µM (active)

Return reported AC50. Input molecule: `CC[C@H](NC(=O)c1cc(F)ccc1NS(=O)(=O)c1cccc2cccnc12)c1ccccc1`
0.13 µM (active)

Please look at this molecule and report its AC50: `CC(=O)N1CCN(c2ccc(OC[C@H]3CO[C@](Cn4ccnc4)(c4ccc(Cl)cc4Cl)O3)cc2)CC1`
24 µM (active)
